Test system: velvetleaf (Abutilon theophrasti, ABUTH)
Assay: Post-emerge test, greenhouse herbicide activity screening
Assay type: in vivo
Conditions: post-emerge, 63 g ai/ha, 14 days after application, rating scale 0-100
Test readout: ABUTH phytotoxicity rating
Lab note: record just the number, no unit beside it.

[[record]]
compound = "Cn1c(C(F)(F)F)cc(=O)n(-c2ccccc2NC(=O)c2ccc3ccccc3c2)c1=O [2-142]"
target_entity = "velvetleaf (Abutilon theophrasti, ABUTH)"
value_reported = 0

[[record]]
compound = "N#CCOc1c(Cl)cc(F)c(-n2c(=O)cc(C(F)(F)F)n(N)c2=O)c1NC(=O)c1ccc2ccccc2c1 [2-188]"
target_entity = "velvetleaf (Abutilon theophrasti, ABUTH)"
value_reported = 100


Task item: Please report ABUTH phytotoxicity rating for the following compound: COc1c(Cl)cc(F)c(-n2c(=O)cc(C(F)(F)F)n(C)c2=O)c1NC(=O)c1ccc2c(Br)cccc2c1 [2-158]
Reply: 95

Task item: Input C=Cc1ccc(C(=O)Nc2c(OC)c(Br)cc(F)c2-n2c(=O)cc(C(F)(F)F)n(C)c2=O)cc1 [2-182] , output reported ABUTH phytotoxicity rating.
Reply: 100

Task item: Please look at this compound and report its ABUTH phytotoxicity rating: COc1c(Br)cc(F)c(-n2c(=O)cc(C(F)(F)F)n(C)c2=O)c1N(C(=O)C=Cc1ccccc1)C(=O)C=Cc1ccccc1 [2-178]
Reply: 40

Task item: # return recorded ABUTH phytotoxicity rating for input COc1c(Cl)cc(F)c(-n2c(=O)cc(C(F)(F)F)n(C)c2=O)c1NC(=O)c1c(C)cccc1C [2-124]
Reply: 40

Task item: Give me measured ABUTH phytotoxicity rating, please, for this compound: COc1cc2ccccc2cc1C(=O)Nc1c(OC)c(Cl)cc(F)c1-n1c(=O)cc(C(F)(F)F)n(C)c1=O [2-152]
Reply: 100

Task item: Find the measured ABUTH phytotoxicity rating of COc1c(Cl)cc(F)c(-n2c(=O)cc(C(F)(F)F)n(C)c2=O)c1NC(=O)C=Cc1ccccc1F [2-125] and report it.
Reply: 100

* * *

Tested on: green foxtail (Setaria viridis, SETVI)
Assay: Post-emerge test, greenhouse herbicide activity screening
Type: in vivo
Conditions: 250 g ai/ha; post-emerge; 14 days after application; rating scale 0-100
Recorded Post-emerge Herbicidal Activity SETVI (phytotoxicity rating), one value per entry.
Lab note: record just the number, no unit beside it.

Known results for molecules:
[[record]]
molecule = "CCOC(=O)C(Cl)Cc1c(OC)c(Cl)cc(F)c1-c1nn(C)c(C(F)(F)F)c1Cl (stereo not drawn)"
value_reported = 70

[[record]]
molecule = "COc1c(Cl)cc(F)c(-n2c(=O)cc(C(F)(F)F)n(C)c2=O)c1NNC(=O)c1ccc(F)cc1F"
value_reported = 80

[[record]]
molecule = "COc1c(Cl)cc(F)c(-n2c(=O)cc(C(F)(F)F)n(C)c2=O)c1Sc1ccc2ccccc2c1"
value_reported = 0

[[record]]
molecule = "C=CC=NNc1c(OC)c(Cl)cc(F)c1-n1c(=O)cc(C(F)(F)F)n(C)c1=O"
value_reported = 75

[[record]]
molecule = "CCOC(=O)NNc1c(OC)c(Cl)cc(F)c1-n1c(=O)cc(C(F)(F)F)n(C)c1=O"
value_reported = 75


Task item: Provide only the value of recorded Post-emerge Herbicidal Activity SETVI (phytotoxicity rating) for COc1c(Cl)cc(F)c(-n2c(=O)cc(C(F)(F)F)n(C)c2=O)c1OC(=O)c1ccc2ccccc2c1
Reply: 0

Task item: State its Post-emerge Herbicidal Activity SETVI (phytotoxicity rating) for this molecule: COc1c(Cl)cc(F)c(-n2c(=O)cc(C(F)(F)F)n(C)c2=O)c1NN=C1CCc2ccccc2C1
Reply: 80

Task item: State its Post-emerge Herbicidal Activity SETVI (phytotoxicity rating) for this molecule: C#CCOC(=O)C(C)(Cl)Cc1c(OC)c(Cl)cc(F)c1-n1c(=O)cc(C(F)(F)F)n(C)c1=O (stereo not drawn)
Reply: 70

Task item: Give a short answer stating reported Post-emerge Herbicidal Activity SETVI (phytotoxicity rating) for COc1c(Cl)cc(F)c(-n2c(=O)cc(C(F)(F)F)n(C)c2=O)c1NN=Cc1ccc(F)cc1F .
Reply: 100
